Threshold values by entry
Biological target: T1, GAL4 activation domain fusion (ACT) to HAB1 (UniProt Q9CAJ0 23-511, limits assumed)
T1 construct: pACT-HAB1 fusion in yeast reporter strains; also called pACT-HAB1
T1 sequence (looked up): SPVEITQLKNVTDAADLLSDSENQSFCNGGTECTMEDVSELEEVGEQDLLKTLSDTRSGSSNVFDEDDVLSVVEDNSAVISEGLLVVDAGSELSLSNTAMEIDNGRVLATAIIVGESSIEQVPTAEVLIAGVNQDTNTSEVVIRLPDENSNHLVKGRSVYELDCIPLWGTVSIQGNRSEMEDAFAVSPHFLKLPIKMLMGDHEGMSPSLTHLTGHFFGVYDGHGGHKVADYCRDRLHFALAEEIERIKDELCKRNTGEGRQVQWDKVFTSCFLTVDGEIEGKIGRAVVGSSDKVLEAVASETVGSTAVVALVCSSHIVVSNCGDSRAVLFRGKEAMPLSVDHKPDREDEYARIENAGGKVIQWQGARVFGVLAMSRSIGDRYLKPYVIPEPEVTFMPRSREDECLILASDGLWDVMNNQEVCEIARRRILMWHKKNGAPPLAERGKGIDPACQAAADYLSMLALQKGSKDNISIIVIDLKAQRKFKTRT
Assay: yeast two-hybrid, X-gal; lowest fludioxonil concentration giving signal
Kindly provide the numeric value in µM only, without the unit symbol.

PYR1^K59R,E141Y (receptor, pBD-PYR1 fusion in yeast) MPSELTPEERSELKNSIAEFHTYQLDPGSCSSLHAQRIHAPPELVWSIVRRFDKPQTYRHFIKSCSVEQNFEMRVGCTRDVIVISGLPANTSTERLDILDDERRVTGFSIIGGEHRLTNYKSVTTVHRFEKENRIWTVVLYSYVVDMPEGNSEDDTRMFADTVVKLNLQKLATVAEAMARNSGDGSGSQVT	100
PYR1^K59R,Y120A (receptor, not shown: small tags and cut ends, pBD-PYR1 fusion in yeast) MPSELTPEERSELKNSIAEFHTYQLDPGSCSSLHAQRIHAPPELVWSIVRRFDKPQTYRHFIKSCSVEQNFEMRVGCTRDVIVISGLPANTSTERLDILDDERRVTGFSIIGGEHRLTNAKSVTTVHRFEKENRIWTVVLESYVVDMPEGNSEDDTRMFADTVVKLNLQKLATVAEAMARNSGDGSGSQVT	100

Endpoint output: Threshold of PYR1^K59R,M158C (receptor, not shown: small tags and cut ends, pBD-PYR1 fusion in yeast) MPSELTPEERSELKNSIAEFHTYQLDPGSCSSLHAQRIHAPPELVWSIVRRFDKPQTYRHFIKSCSVEQNFEMRVGCTRDVIVISGLPANTSTERLDILDDERRVTGFSIIGGEHRLTNYKSVTTVHRFEKENRIWTVVLESYVVDMPEGNSEDDTRCFADTVVKLNLQKLATVAEAMARNSGDGSGSQVT . Value?
100
